Below, each entry is listed with its recorded viability, T/C.
- Test system: 349418-098-R-PDC complex spheroid viability
- experimentSummary: Anticancer human tumor 349418-098-R-PDC patient-derived lung adenocarcinoma cell line growth inhibition [RAS]
- details: second compound 10 µM; first compound 0.0316 µM; stronger effect = lower value
Numbers only; they are read as %.

Example entries begin here.
| compound | viability, T/C, % |
| --- | --- |
| CC(Nc1ccc2c(c1)OCCn1cc(N3C(=O)OCC3C(F)F)nc1-2)C(N)=O (stereo not given) + C#Cc1c(F)ccc2cc(O)cc(-c3ncc4c(N5CC6CCC(C5)N6)nc(OCC56CCCN5CC(F)C6)nc4c3F)c12 | 35.9 |
| Nc1ccn(C2OC(CO)C(O)C2(F)F)c(=O)n1 (stereo not given) + C#Cc1c(F)ccc2cc(O)cc(-c3ncc4c(N5CC6CCC(C5)N6)nc(OCC56CCCN5CC(F)C6)nc4c3F)c12 | 5.23 |
| Cc1nc(N2CCC3(CC2)COC(C)C3N)c(CO)nc1Sc1ccnc(N)c1Cl (stereo not given) + C#Cc1c(F)ccc2cc(O)cc(-c3ncc4c(N5CC6CCC(C5)N6)nc(OCC56CCCN5CC(F)C6)nc4c3F)c12 | 75.4 |
| CCC(CC)c1cc(NC2CCC(N)C2)n2nccc2n1 (stereo not given) + C#Cc1c(F)ccc2cc(O)cc(-c3ncc4c(N5CC6CCC(C5)N6)nc(OCC56CCCN5CC(F)C6)nc4c3F)c12 | 52.5 |

Next compound, please.
Request: Given the entry C[C@@H](NC(=O)c1ncnc(N)c1Cl)c1ncc(C(=O)Nc2cc(C(F)(F)F)c(Cl)cn2)s1 + C#Cc1c(F)ccc2cc(O)cc(-c3ncc4c(N5CC6CCC(C5)N6)nc(OCC56CCCN5CC(F)C6)nc4c3F)c12 , report its measured viability, T/C.
Response: 76.5

---

- System: 349418-098-R-PDC complex spheroid viability
- experimentSummary: Anticancer human tumor 349418-098-R-PDC cell line growth inhibition [RAS];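 further: spheroids exposed to compound for seven days before viability readout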
- details: second compound 0.003 µM; first compound 1 µM; stronger effect = lower value
Reported viability, T/C is given for each of the following compounds.
Kindly provide the numeric value in % only, without the unit symbol.

Some compounds with known viability, T/C results, for comparison:
| compound | viability, T/C / % |
| --- | --- |
| NC1c2ccccc2OC12CCN(c1cnc3c(N4CCCc5ncccc54)n[nH]c3n1)CC2 (stereo not drawn) + CCn1c(-c2cc(N3CCN(C)CC3)cnc2C(C)OC)c2c3cc(ccc31)-c1csc(n1)CC(NC(=O)C1CC1C)C(=O)N1CCCC(N1)C(=O)OCC(C)(C)C2 | 102 |
| CCC(CC)c1cc(NC2CCC(N)C2)n2nccc2n1 (stereo not drawn) + CCn1c(-c2cc(N3CCN(C)CC3)cnc2C(C)OC)c2c3cc(ccc31)-c1csc(n1)CC(NC(=O)C1CC1C)C(=O)N1CCCC(N1)C(=O)OCC(C)(C)C2 | 52.7 |
| CC(C)NCC(C(=O)N1CCN(c2ncnc3c2C(C)CC3O)CC1)c1ccc(Cl)cc1 (stereo not drawn) + CCn1c(-c2cc(N3CCN(C)CC3)cnc2C(C)OC)c2c3cc(ccc31)-c1csc(n1)CC(NC(=O)C1CC1C)C(=O)N1CCCC(N1)C(=O)OCC(C)(C)C2 | 45.8 |
| CC(C)NCC(C(=O)N1CCN(c2ncnc3c2C(C)CC3O)CC1)c1ccc(Cl)cc1 (stereo not drawn) + CCn1c(-c2cccnc2C(C)OC)c2c3cc(ccc31)N1CCOC(CC(NC(=O)C(C(C)C)N(C)C(=O)C3(F)CCN(C(=O)C#CC(C)(C)N(C)C)CC3)C(=O)N3CCCC(N3)C(=O)OCC(C)(C)C2)C1 | 48.1 |

Request: # get_value(readout='viability, T/C', item= Nc1ccn(C2OC(CO)C(O)C2(F)F)c(=O)n1 (stereo not drawn) + CCn1c(-c2cccnc2C(C)OC)c2c3cc(ccc31)N1CCOC(CC(NC(=O)C(C(C)C)N(C)C(=O)C3(F)CCN(C(=O)C#CC(C)(C)N(C)C)CC3)C(=O)N3CCCC(N3)C(=O)OCC(C)(C)C2)C1 )
Response: 4.2

Request: Given the entry CC(Nc1ccc2c(c1)OCCn1cc(N3C(=O)OCC3C(F)F)nc1-2)C(N)=O (stereo not drawn) + CCn1c(-c2cc(N3CCN(C)CC3)cnc2C(C)OC)c2c3cc(ccc31)-c1csc(n1)CC(NC(=O)C1CC1C)C(=O)N1CCCC(N1)C(=O)OCC(C)(C)C2 , report its measured viability, T/C.
Response: 25.5

Request: Fill in the blank: the reported viability, T/C of CCN1CCN(Cc2ccc(Nc3ncc(F)c(-c4cc(F)c5nc(C)n(C(C)C)c5c4)n3)nc2)CC1 + CCn1c(-c2cccnc2C(C)OC)c2c3cc(ccc31)N1CCOC(CC(NC(=O)C(C(C)C)N(C)C(=O)C3(F)CCN(C(=O)C#CC(C)(C)N(C)C)CC3)C(=O)N3CCCC(N3)C(=O)OCC(C)(C)C2)C1 is ____.
Response: 13.4

Request: Quick one: viability, T/C for CC(=O)OC12COC1CC(O)C1(C)C(=O)C(O)C3=C(C)C(OC(=O)C(O)C(NC(=O)OC(C)(C)C)c4ccccc4)CC(O)(C(OC(=O)c4ccccc4)C21)C3(C)C (stereo not drawn) + CCn1c(-c2cccnc2C(C)OC)c2c3cc(ccc31)N1CCOC(CC(NC(=O)C(C(C)C)N(C)C(=O)C3(F)CCN(C(=O)C#CC(C)(C)N(C)C)CC3)C(=O)N3CCCC(N3)C(=O)OCC(C)(C)C2)C1 ?
Response: 13.8

Origin of values: PubChem BioAssay AID2060904
